# Tested on: Candida
# ASSAY REMARKS: Antifungal activity against Candida mycoderma by microbroth dilution method
# Format: functional
TEST READOUT: MIC (µg/mL)
The answer is to be given in µg/mL; state only the numeric part.

input: Quick one: MIC of O=C1c2cccc3c(Br)ccc(c23)C(=O)N1CCCn1cncn1 ?
output: 256

***
input: Quick one: MIC of O=C1c2cccc3c(Br)ccc(c23)C(=O)N1CCCn1c[n+](Cc2ccc(Cl)cc2Cl)cn1.[Br-] ?
output: 8

input: Quick one: MIC of O=C1c2cccc3c(Br)ccc(c23)C(=O)N1CCCn1c[n+](Cc2ccccc2Cl)cn1.[Br-] ?
output: 32

input: Quick one: MIC of O=C1c2cccc3c(Br)ccc(c23)C(=O)N1CCCn1c[n+](Cc2ccc([N+](=O)[O-])cc2)cn1.[Br-] ?
output: 16

input: Quick one: MIC of O=C1c2cccc3c(Br)ccc(c23)C(=O)N1CCCCCCn1cc[n+](Cc2ccc(F)cc2F)c1.[Br-] ?
output: 32

input: Quick one: MIC of O=C1c2cccc3c(Br)ccc(c23)C(=O)N1CCCCCn1cc[n+](Cc2ccc(F)cc2F)c1.[Br-] ?
output: 16

====

Listed next: entries and their corresponding MIC.
# Test system: Bacillus subtilis
# ASSAY REMARKS: Antibacterial activity against Bacillus subtilis ATCC 6633 by microbroth dilution method
# Type: functional
The answer is to be given in µg/mL; state only the numeric part.

# annotated cases, reported MIC shown
input: Quick one: MIC of O=C1c2cccc3c(Br)ccc(c23)C(=O)N1CCCCCn1c[n+](Cc2ccc(F)cc2F)cn1.[Br-] ?
output: 32

input: Quick one: MIC of O=C1c2cccc3c(Br)ccc(c23)C(=O)N1CCCCn1cc[n+](Cc2ccc(F)cc2F)c1.[Br-] ?
output: 8

input: Quick one: MIC of O=C1c2cccc3c(Br)ccc(c23)C(=O)N1CCCCCCn1ccnc1 ?
output: 16

Now look at this one.
input: Quick one: MIC of O=C1c2cccc3c(Br)ccc(c23)C(=O)N1CCCCCn1ccnc1 ?
output: 64

====

# Test system: Candida
# ASSAY REMARKS: Antifungal activity against Candida mycoderma by microbroth dilution method
# Format: functional
Listed next: entries and their corresponding MIC.
The answer is to be given in mg/L; state only the numeric part.

# annotated cases, reported MIC shown
input: Quick one: MIC of O=C1c2cccc3c(Br)ccc(c23)C(=O)N1CCCCCCn1c[n+](Cc2ccc(F)cc2F)cn1.[Br-] ?
output: 64

input: Quick one: MIC of O=C1c2cccc3c(Br)ccc(c23)C(=O)N1CCCn1c[n+](Cc2ccc(Cl)cc2)cn1.[Br-] ?
output: 16

input: Quick one: MIC of O=C1c2cccc3c(Br)ccc(c23)C(=O)N1CCCCCn1ccnc1 ?
output: 64

input: Quick one: MIC of O=C1c2cccc3c(Br)ccc(c23)C(=O)N1CCCn1ccnc1 ?
output: 64

Now look at this one.
input: Quick one: MIC of O=C1c2cccc3c(Br)ccc(c23)C(=O)N1CCCn1cc[n+](Cc2ccc(F)cc2F)c1.[Br-] ?
output: 32

====

Listed next: entries and their corresponding MIC.
# Tested on: Bacillus subtilis
# ASSAY REMARKS: Antibacterial activity against Bacillus subtilis ATCC 6633 by microbroth dilution method
# Format: functional

input: Quick one: MIC of O=C1c2cccc3c(Br)ccc(c23)C(=O)N1CCCCCCn1cncn1 ?
output: > 512 µg/mL

input: Quick one: MIC of O=C1c2cccc3c(Br)ccc(c23)C(=O)N1CCCCn1cncn1 ?
output: > 512 µg/mL

Now look at this one.
input: Quick one: MIC of O=C1c2cccc3c(Br)ccc(c23)C(=O)N1CCCCCn1cncn1 ?
output: > 512 µg/mL
